FYI, the data here is from patent US4959373A.

# Test system: QT interval
# METHOD SUMMARY: Antiarrhythmic Class III action in guinea pigs after intravenous administration (QT interval prolongation in the ECG)
# Assay type: in vivo, Pirbright white guinea pigs
# ASSAY CONTEXT: Cavia porcellus, anesthetized with urethane, ED 20% from linear relationship between log dose and relative QT prolongation (Δ%)
Kindly state ED (20%) for each of the entries shown.
Return type: number; implicit unit mg/kg.

Per the reported QT interval data, O=C(Nc1ccc(Cl)cc1)N1CC2CC(CN(Cc3ccccc3)C2)C1 [Example 23] has ED (20%) of 2.4

Cc1ccc(NC(=O)N2CC3CC(CN(Cc4ccccc4)C3)C2)cc1 [Example 21] tested on QT interval gave ED (20%): 2.6

Log: QT interval, compound O=C(c1ccc(Cl)cc1)N1CC2CC(CN(Cc3ccccc3)C2)C1 [Example 2] , ED (20%) = 4.6

Entry O=C(Nc1ccccc1)N1CC2CC(CN(Cc3ccc(Cl)cc3)C2)C1 [Example 26] , QT interval data, ED (20%) value: 3.6

Item: CC(C)NC[C@@H](O)c1ccc(NS(C)(=O)=O)cc1 [D-sotalol, reference compound] | System: QT interval | ED (20%): 3.6

ED (20%) on QT interval for Nc1ccc(C(=O)N2CC3CC(CN(Cc4ccccc4)C3)C2)cc1 [Ambasilide, reference compound] is 6.3
